Species on record: Rattus norvegicus
Assay: DrugMatrix - Regimen: Daily Repeat
Assay type: toxicity, organism-based, Sprague-Dawley
Parameters: regimen Daily Repeat, gender Male, age 6-8 weeks
Conditions: in vivo, po, 1500 mg/kg, 120 h, tissue Blood, route oral GAVAGE, dose level High, time 5 day, vehicle .5 % CMC
recorded endpoint: HEMATOCRIT
Please format your answer as a value with the unit trailing.

Field HEMATOCRIT (entry C[C@@H](O)[C@H]1C(=O)N2C(C(=O)O)=C(S[C@@H]3CN[C@H](C(=O)N(C)C)C3)[C@H](C)[C@H]12 [MEROPENEM] ) reads 36.37%

Field HEMATOCRIT (entry CC(C)(Sc1cc(C(C)(C)C)c(O)c(C(C)(C)C)c1)Sc1cc(C(C)(C)C)c(O)c(C(C)(C)C)c1 [PROBUCOL] ) reads 34.87%

Field HEMATOCRIT (entry CCOC(=O)[C@H](CCc1ccccc1)N[C@@H](C)C(=O)N1CCC[C@H]1C(=O)O ) reads 36.97%

Field HEMATOCRIT (entry O=c1cc(-c2ccccc2)oc2ccc3ccccc3c12 [BETA-NAPHTHOFLAVONE] ) reads 42.73%

Field HEMATOCRIT (entry Nc1nc2c(c(=O)[nH]1)N(C=O)C(CNc1ccc(C(=O)N[C@@H](CCC(=O)O)C(=O)O)cc1)CN2 (stereo not given in full) [LEUCOVORIN] ) reads 35.37%

====

Organism: Rattus norvegicus
Experiment: DrugMatrix - Regimen: Daily Repeat
Assay type: toxicity, organism-based, Sprague-Dawley
Set-up: regimen Daily Repeat, gender Male, age 6-8 weeks
Details: in vivo, po, 0 mg/kg, 120 h, tissue Plasma, route oral GAVAGE, dose level Control, time 5 day, vehicle 100 % SALINE
Please provide measured PHOSPHORUS for the entries that follow.
# number only, unit mg/dL dropped from output

Field PHOSPHORUS (entry CC(=O)OCC(CCn1cnc2cnc(N)nc21)COC(C)=O ) reads 10.88

Field PHOSPHORUS (entry Cc1cc(CC(=O)O)n(C)c1C(=O)c1ccc(Cl)cc1 [ZOMEPIRAC] ) reads 11.45

Field PHOSPHORUS (entry Oc1ccccc1O ) reads 11.45

Field PHOSPHORUS (entry CCCc1nn(C)c2c(=O)[nH]c(-c3cc(S(=O)(=O)N4CCN(C)CC4)ccc3OCC)nc12 ) reads 10.88

====

Species on record: Rattus norvegicus
Assay: DrugMatrix - Regimen: Daily Repeat
Assay type: toxicity, organism-based, Sprague-Dawley
Design: regimen Daily Repeat, gender Male, age 6-8 weeks
Conditions: in vivo, po, 0 mg/kg, 72 h, tissue Plasma, route oral GAVAGE, dose level Control, time 3 day, vehicle 100 % WATER
recorded endpoint: GLUCOSE (mg/dL)
# number only, unit mg/dL dropped from output

Field GLUCOSE (entry O=P1(N(CCCl)CCCl)NCCCO1 (stereo not drawn) [CYCLOPHOSPHAMIDE ANHYDROUS] ) reads 152.67

Field GLUCOSE (entry CN1C2CCCC1CC(NC(=O)c1nn(C)c3ccccc13)C2 (stereo not drawn) ) reads 135.67

Field GLUCOSE (entry CCOC(N)=O ) reads 169.33

Field GLUCOSE (entry O=C(O)c1cccnc1 ) reads 187.5

Field GLUCOSE (entry Nc1ccc(S(=O)(=O)Nc2ncccn2)cc1 ) reads 175

Field GLUCOSE (entry CCN(CC)CC#CCOC(=O)C(O)(c1ccccc1)C1CCCCC1 (stereo not drawn) ) reads 162.17

Field GLUCOSE (entry CC(C)(C)NC[C@H](O)COc1nsnc1N1CCOCC1 ) reads 135.67

Field GLUCOSE (entry CC[C@H]1OC(=O)[C@H](C)[C@@H](O[C@H]2C[C@@](C)(OC)[C@@H](O)[C@H](C)O2)[C@H](C)[C@@H](O[C@@H]2O[C@H](C)C[C@H](N(C)C)[C@H]2O)[C@](C)(O)C[C@@H](C)CN(C)[C@H](C)[C@@H](O)[C@]1(C)O ) reads 164.67

====

Species: Rattus norvegicus
Assay: DrugMatrix - Regimen: Daily Repeat
Type: toxicity, organism-based, Sprague-Dawley
Design: regimen Daily Repeat, gender Male, age 6-8 weeks
Settings: in vivo, po, 0 mg/kg, 72 h, tissue Blood, route oral GAVAGE, dose level Control, time 3 day, […]
recorded endpoint: NEUTROPHIL (%)
# number only, unit % dropped from output

Field NEUTROPHIL (entry NC[C@@H]1O[C@H](O[C@H]2[C@@H](O)[C@H](O[C@@H]3[C@@H](O)[C@H](N)C[C@H](N)[C@H]3O[C@H]3O[C@H](CN)[C@@H](O)[C@H](O)[C@H]3N)O[C@@H]2CO)[C@H](N)[C@@H](O)[C@@H]1O ) reads 12.33

Field NEUTROPHIL (entry CC(C)Cc1ccc(CC(=O)O)cc1 ) reads 13.33

Field NEUTROPHIL (entry COc1ncnc(NS(=O)(=O)c2ccc(N)cc2)c1OC ) reads 9.33

====

Species on record: Rattus norvegicus
Experiment: DrugMatrix - Regimen: Daily Repeat
Type: toxicity, organism-based, Sprague-Dawley
Parameters: regimen Daily Repeat, gender Male, age 6-8 weeks
Settings: in vivo, po, 0 mg/kg, 72 h, tissue Blood, route oral GAVAGE, dose level Control, time 3 day, […]
recorded endpoint: NUCLEATED RED BLOOD CELLS

Field NUCLEATED RED BLOOD CELLS (entry CN(CCOc1ccc(CC2SC(=O)NC2=O)cc1)c1ccccn1 (stereo not drawn) ) reads 0 /100WBC

Field NUCLEATED RED BLOOD CELLS (entry COc1ncnc(NS(=O)(=O)c2ccc(N)cc2)c1OC ) reads 0 /100WBC

Field NUCLEATED RED BLOOD CELLS (entry CC[C@H](C)C(=O)O[C@H]1C[C@H](O)C=C2C=C[C@H](C)[C@H](CC[C@@H](O)C[C@@H](O)CC(=O)O)[C@H]21 ) reads 0 /100WBC

Field NUCLEATED RED BLOOD CELLS (entry CS(=O)(=O)OCCCCOS(C)(=O)=O ) reads 0 /100WBC

Field NUCLEATED RED BLOOD CELLS (entry OCCN1CCN(CCCN2c3ccccc3Sc3ccc(C(F)(F)F)cc32)CC1 ) reads 0 /100WBC

Field NUCLEATED RED BLOOD CELLS (entry CC(=O)Nc1nnc(S(N)(=O)=O)s1 [ACETAZOLAMIDE] ) reads 0 /100WBC

Field NUCLEATED RED BLOOD CELLS (entry NC[C@@H]1O[C@H](O[C@H]2[C@@H](O)[C@H](O[C@@H]3[C@@H](O)[C@H](N)C[C@H](N)[C@H]3O[C@H]3O[C@H](CN)[C@@H](O)[C@H](O)[C@H]3N)O[C@@H]2CO)[C@H](N)[C@@H](O)[C@@H]1O ) reads 0 /100WBC

Field NUCLEATED RED BLOOD CELLS (entry CC(C)Cc1ccc(CC(=O)O)cc1 ) reads 0 /100WBC

====

Species: Rattus norvegicus
Assay: DrugMatrix - Regimen: Daily Repeat
Type: toxicity, organism-based, Sprague-Dawley
Set-up: regimen Daily Repeat, gender Male, age 6-8 weeks
Conditions: in vivo, po, 1500 mg/kg, 120 h, tissue Plasma, route oral GAVAGE, dose level High, time 5 day, vehicle .5 % CMC
Threshold check on ASPARTATE AMINOTRANSFERASE: strictly below 70 u/L is yes; on or above 70 u/L is no.

Decide: ASPARTATE AMINOTRANSFERASE of Nc1nc2c(c(=O)[nH]1)N(C=O)C(CNc1ccc(C(=O)N[C@@H](CCC(=O)O)C(=O)O)cc1)CN2 (stereo not given in full) strictly below 70 u/L?
no

Decide: ASPARTATE AMINOTRANSFERASE of CC(C)(Sc1cc(C(C)(C)C)c(O)c(C(C)(C)C)c1)Sc1cc(C(C)(C)C)c(O)c(C(C)(C)C)c1 strictly below 70 u/L?
no

Decide: ASPARTATE AMINOTRANSFERASE of CCOC(=O)[C@H](CCc1ccccc1)N[C@@H](C)C(=O)N1CCC[C@H]1C(=O)O strictly below 70 u/L?
no

Decide: ASPARTATE AMINOTRANSFERASE of C[C@@H](O)[C@H]1C(=O)N2C(C(=O)O)=C(S[C@@H]3CN[C@H](C(=O)N(C)C)C3)[C@H](C)[C@H]12 strictly below 70 u/L?
no

Decide: ASPARTATE AMINOTRANSFERASE of O=c1cc(-c2ccccc2)oc2ccc3ccccc3c12 strictly below 70 u/L?
yes

====

Species: Rattus norvegicus
Assay: DrugMatrix - Regimen: Daily Repeat
Format: toxicity, organism-based, Sprague-Dawley
Parameters: regimen Daily Repeat, gender Male, age 6-8 weeks
Conditions: in vivo, po, 0 mg/kg, 120 h, tissue Blood, route oral GAVAGE, dose level Control, time 5 day, vehicle 100 % WATER
Threshold check on PLATELET COUNT: strictly below 1000 x10E3/uL is Satisfied; on or above 1000 x10E3/uL is Not satisfied.

Decide: PLATELET COUNT of CC[C@H]1OC(=O)[C@H](C)[C@@H](O[C@H]2C[C@@](C)(OC)[C@@H](O)[C@H](C)O2)[C@H](C)[C@@H](O[C@@H]2O[C@H](C)C[C@H](N(C)C)[C@H]2O)[C@](C)(O)C[C@@H](C)CN(C)[C@H](C)[C@@H](O)[C@]1(C)O [AZITHROMYCIN] strictly below 1000 x10E3/uL?
Not satisfied

Decide: PLATELET COUNT of CCCc1nn(C)c2c(=O)[nH]c(-c3cc(S(=O)(=O)N4CCN(C)CC4)ccc3OCC)nc12 strictly below 1000 x10E3/uL?
Satisfied

Decide: PLATELET COUNT of CC[C@H]1OC(=O)[C@H](C)[C@@H](O[C@H]2C[C@@](C)(OC)[C@@H](O)[C@H](C)O2)[C@H](C)[C@@H](O[C@@H]2O[C@H](C)C[C@H](N(C)C)[C@H]2O)[C@](C)(OC)C[C@@H](C)C(=O)[C@H](C)[C@@H](O)[C@]1(C)O [CLARITHROMYCIN] strictly below 1000 x10E3/uL?
Not satisfied

Decide: PLATELET COUNT of CCN[C@@H](C)Cc1cccc(C(F)(F)F)c1 [DEXFENFLURAMINE] strictly below 1000 x10E3/uL?
Not satisfied

Decide: PLATELET COUNT of Nc1ccc(S(=O)(=O)Nc2ncccn2)cc1 [SULFADIAZINE] strictly below 1000 x10E3/uL?
Not satisfied

Each recorded value in this set is attributed to ChEMBL document CHEMBL3885881.
